- Run Description: Tmax in dog at 2 mg/kg, po
- Format: ADME, organism-based, Canis lupus familiaris
- Condition: in vivo

Substance Smiles: COc1cc(-c2cccc(C(F)(F)F)c2)c(F)cc1-c1nccc2cc(S(=O)(=O)Nc3ccon3)ccc12
Tmax, h: 2

---

# Lookup of reported pIC50 keyed by entry
- Measurement Target: Cytochrome P450 3A4 (Homo sapiens, UniProt P08684)
- Sequence (P08684 whole entry): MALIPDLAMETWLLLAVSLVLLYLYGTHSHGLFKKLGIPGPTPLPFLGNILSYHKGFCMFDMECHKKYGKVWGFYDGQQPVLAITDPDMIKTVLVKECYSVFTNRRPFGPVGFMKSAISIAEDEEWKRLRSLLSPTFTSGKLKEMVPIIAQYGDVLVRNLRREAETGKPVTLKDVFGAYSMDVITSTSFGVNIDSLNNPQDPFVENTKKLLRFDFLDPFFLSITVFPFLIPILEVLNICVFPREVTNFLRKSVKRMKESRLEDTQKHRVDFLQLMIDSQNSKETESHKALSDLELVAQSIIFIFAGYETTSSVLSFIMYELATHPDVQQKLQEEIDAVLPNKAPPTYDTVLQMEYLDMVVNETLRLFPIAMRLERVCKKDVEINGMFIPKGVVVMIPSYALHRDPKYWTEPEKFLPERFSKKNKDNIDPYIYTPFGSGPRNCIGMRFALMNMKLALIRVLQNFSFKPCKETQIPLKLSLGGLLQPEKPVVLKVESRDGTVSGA
pIC50: −log10 of the molar value.

Substance Smiles: COc1cc(-c2cccc(F)c2)c(Cl)cc1-c1nccc2cc(S(=O)(=O)Nc3ncco3)ccc12
pIC50: < 4.57

Substance Smiles: COc1cc(-c2cccc(F)c2)ccc1-c1nccc2cc(S(=O)(=O)Nc3ccncn3)ccc12
pIC50: 5.89

Substance Smiles: COc1cc(-c2cccc(F)c2)c(Cl)cc1-c1nccc2cc(S(=O)(=O)Nc3ccon3)ccc12
pIC50: < 4.57

Substance Smiles: COc1cc(-c2cccc(F)c2)c(Cl)cc1-c1nccc2cc(S(=O)(=O)Nc3ccncn3)ccc12
pIC50: < 4.57

Substance Smiles: COc1cc(-c2cccc(F)c2)c(Cl)cc1-c1nccc2cc(S(=O)(=O)Nc3ncon3)ccc12
pIC50: < 4.57

Substance Smiles: COc1cc(-c2cccc(F)c2)c(Cl)cc1-c1nccc2cc(S(=O)(=O)Nc3ncns3)ccc12
pIC50: 6.10

Substance Smiles: COc1cc(-c2cccc(F)c2)c(Cl)cc1-c1nccc2cc(S(=O)(=O)Nc3ncccn3)ccc12
pIC50: < 4.57

---

- Run Description: Intrinsic clearance in rat liver microsomes at 1 uM after 1 to 40 mins in presence of NADPH by LC-MS/MS analysis
- Format: ADME, microsome
- Condition: read-out: CLH
Label true (1) for high-side microsomal CLint at 1 µM (at or above 30 µL/min/mg) and false (0) for low-side microsomal CLint at 1 µM (below it).

Substance Smiles: COc1cc(-c2cccc(Cl)c2)c(F)cc1-c1nccc2cc(S(=O)(=O)Nc3ccon3)ccc12
Category: true (1)

Substance Smiles: COc1cc(-c2cccc(F)c2)c(Cl)cc1-c1nccc2cc(S(=O)(=O)Nc3ncon3)ccc12
Category: false (0)

Substance Smiles: COc1cc(-c2cccc(F)c2)c(Cl)cc1-c1ncnc2cc(S(=O)(=O)Nc3ccon3)ccc12
Category: true (1)

Substance Smiles: COc1cc(-c2cc(F)cnc2OC)c(F)cc1-c1nccc2cc(S(=O)(=O)Nc3ccon3)ccc12
Category: false (0)

Substance Smiles: COc1cc(-c2cccc(F)c2)c(Cl)cc1-c1c(N)nnc2cc(S(=O)(=O)Nc3ccon3)ccc12
Category: false (0)

Substance Smiles: COc1cc(-c2cccc(F)c2)c(Cl)cc1-c1ncc(O)c2cc(S(=O)(=O)Nc3ccon3)ccc12
Category: false (0)

Substance Smiles: COc1cc(-c2cccc(F)c2)ccc1-c1nccc2cc(S(=O)(=O)Nc3ccncn3)ccc12
Category: false (0)

Substance Smiles: COc1cc(-c2cccc(F)c2)c(Cl)cc1-c1nccc2cc(S(=O)(=O)Nc3ccncn3)ccc12
Category: false (0)

Substance Smiles: COc1cc(-c2cccc(F)c2)c(Cl)cc1-c1nccc2cc(S(=O)(=O)Nc3ncns3)ccc12
Category: false (0)

Substance Smiles: COc1cc(-c2cccc(F)c2)c(Cl)cc1-c1c(=O)n(C)cc2cc(S(=O)(=O)Nc3ccon3)ccc12
Category: false (0)

Substance Smiles: COc1cc(-c2cccc(F)c2)c(Cl)cc1-c1nccc2cc(S(=O)(=O)Nc3ccon3)ccc12
Category: false (0)

Substance Smiles: COc1cc(-c2ccc(C(F)(F)F)cc2)c(F)cc1-c1nccc2cc(S(=O)(=O)Nc3ccon3)ccc12
Category: false (0)

Substance Smiles: COc1cc(-c2cccc(F)c2)c(Cl)cc1-c1nn(C)c(=O)c2cc(S(=O)(=O)Nc3ccon3)ccc12
Category: false (0)

Substance Smiles: COc1cc(-c2cccc(F)c2)c(Cl)cc1-c1nccc2cc(S(=O)(=O)Nc3ncco3)ccc12
Category: true (1)

Substance Smiles: COc1cc(-c2ccc(Cl)c(C)c2)c(F)cc1-c1nccc2cc(S(=O)(=O)Nc3ccon3)ccc12
Category: false (0)

Substance Smiles: COc1cc(-c2cccc(F)c2)c(Cl)cc1-c1[nH]c(=O)cc2cc(S(=O)(=O)Nc3ccon3)ccc12
Category: false (0)

Substance Smiles: COc1cc(-c2cccc(F)c2)c(Cl)cc1-c1nccc2cc(S(=O)(=O)Nc3cccnn3)ccc12
Category: false (0)

Substance Smiles: COc1cc(-c2cc(F)cc(F)c2)c(F)cc1-c1nccc2cc(S(=O)(=O)Nc3ccon3)ccc12
Category: false (0)

Substance Smiles: COc1cc(-c2cccc(C)c2)c(F)cc1-c1nccc2cc(S(=O)(=O)Nc3ccon3)ccc12
Category: true (1)

Substance Smiles: COc1cc(-c2cccc(F)c2)c(Cl)cc1-c1nccc2cc(S(=O)(=O)Nc3ncccn3)ccc12
Category: true (1)

Substance Smiles: COc1cc(-c2cccc(C(F)(F)F)c2)c(F)cc1-c1nccc2cc(S(=O)(=O)Nc3ccon3)ccc12
Category: false (0)
